- measured_on: T1, HLA-A2/NY-ESO peptide complex presented on cells (human)
- T1 construct: whole, on cells; also called HLA/NY-ESO; T2 cells supplemented with the NY-ESO peptide
- experimental_protocol: flow cytometry on peptide-pulsed T2 cells, scFv 100 nM
Some binders, each annotated with its measured standardized gMFI.

# binder, standardized gMFI
records = [
    ("NYA-2048 (scFv, also called NYA-2048 tag adduct) scFv: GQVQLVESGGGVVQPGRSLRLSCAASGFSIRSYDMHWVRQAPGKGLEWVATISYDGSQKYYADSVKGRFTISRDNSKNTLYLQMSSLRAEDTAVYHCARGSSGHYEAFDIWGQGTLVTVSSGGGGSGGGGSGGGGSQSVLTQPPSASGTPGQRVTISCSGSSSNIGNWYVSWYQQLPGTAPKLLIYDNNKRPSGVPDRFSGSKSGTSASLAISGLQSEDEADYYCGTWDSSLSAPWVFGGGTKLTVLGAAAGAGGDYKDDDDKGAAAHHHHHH", 6.58),
    ("NYA-2027 (scFv) scFv: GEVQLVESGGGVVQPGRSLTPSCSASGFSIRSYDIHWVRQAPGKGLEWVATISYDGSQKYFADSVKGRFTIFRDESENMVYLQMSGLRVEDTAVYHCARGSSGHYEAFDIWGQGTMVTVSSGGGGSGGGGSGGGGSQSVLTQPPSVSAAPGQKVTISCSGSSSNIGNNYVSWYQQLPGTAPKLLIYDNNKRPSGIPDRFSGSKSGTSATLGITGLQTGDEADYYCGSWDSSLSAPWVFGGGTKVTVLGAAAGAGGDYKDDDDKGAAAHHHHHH", 5.75),
    ("NYA-0001 (scFv, also called NYA-0001 tag adduct; NY-R119 expressed in a cultured mammalian cell) scFv: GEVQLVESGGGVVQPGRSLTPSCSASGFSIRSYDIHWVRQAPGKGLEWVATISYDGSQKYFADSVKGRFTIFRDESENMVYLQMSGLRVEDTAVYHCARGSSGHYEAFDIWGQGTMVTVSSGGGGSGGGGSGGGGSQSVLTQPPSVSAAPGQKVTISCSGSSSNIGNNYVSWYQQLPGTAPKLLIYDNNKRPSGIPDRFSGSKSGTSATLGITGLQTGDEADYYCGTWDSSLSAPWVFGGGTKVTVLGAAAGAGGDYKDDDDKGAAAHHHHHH", 5.75),
    ("NYA-2047 (scFv) scFv: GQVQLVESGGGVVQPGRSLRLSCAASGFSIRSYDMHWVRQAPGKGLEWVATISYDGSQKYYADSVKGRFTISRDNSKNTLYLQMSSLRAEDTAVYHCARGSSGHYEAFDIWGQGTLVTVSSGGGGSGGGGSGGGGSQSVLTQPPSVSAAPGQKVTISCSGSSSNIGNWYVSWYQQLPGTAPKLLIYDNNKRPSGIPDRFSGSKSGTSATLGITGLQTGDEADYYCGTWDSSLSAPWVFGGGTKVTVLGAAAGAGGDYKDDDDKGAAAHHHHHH", 7.99),
    ("NYA-2060 (scFv, also called NYA-2060 tag adduct) scFv: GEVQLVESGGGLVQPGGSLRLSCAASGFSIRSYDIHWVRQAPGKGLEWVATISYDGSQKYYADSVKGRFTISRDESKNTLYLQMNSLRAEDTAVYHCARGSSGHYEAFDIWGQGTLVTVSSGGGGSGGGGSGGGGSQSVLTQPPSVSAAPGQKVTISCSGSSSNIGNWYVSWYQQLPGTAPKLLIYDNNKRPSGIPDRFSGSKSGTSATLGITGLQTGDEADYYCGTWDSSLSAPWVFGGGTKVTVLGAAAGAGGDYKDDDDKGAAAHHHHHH", 8.78),
]
